B1: glmS ribozyme (parent)
chain: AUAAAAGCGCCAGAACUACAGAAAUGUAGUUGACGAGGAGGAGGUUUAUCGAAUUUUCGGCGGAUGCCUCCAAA

- Variants of: B1
- METHOD: self-cleavage kobs at 640 uM GlcN6P; higher = faster cleavage; RNA array
- TEST_SETTINGS: with glucosamine-6-phosphate
This sample holds only a part of the variants without activity.
What self-cleavage kobs at 640 uM GlcN6P was measured for each of the following?

self-cleavage kobs at 640 uM GlcN6P for `AUAAAAGAGCAAGAACUACAGAAAUGUAGUUGACGAUGAGCAGGUUUAUCGACUUUUCGGCGCAUGCCUCCAAA` is < 1e-05 s⁻¹

Sample `AUAAAAGCGCCAGAACUACAGAAAUGUAGUUGACGAGGAGGAGGGUUAUCGAAUUUUCGGCGGAUGCCUCAAAA` ; self-cleavage kobs at 640 uM GlcN6P observed: 0.000204 s⁻¹

# self-cleavage kobs at 640 uM GlcN6P (variant: `AUAAAAGCGCCAAAACUACAGAAAUGUAGUUGACGAGGAGGCGUUUUAUCGAAUUUUCGGCGGAUGCCUCCAAA` ) is < 1e-05 s⁻¹

Quick note, self-cleavage kobs at 640 uM GlcN6P for `AUAAAAGCGCCAGAACUACAGAAAUGUAGUUUGCGAGGAGGAGGUUUAUCGAAUUUUCGGCGGAUGCCUCCAAA` landed at < 1e-05 s⁻¹

Just so you know, measured self-cleavage kobs at 640 uM GlcN6P for `AUAAAAGCGCCAGAACUACAGAAAUGUAGUGGACUGGGAGGAGGUUAAUCGAAUUUUCGGCGGGUGCUUCGAAA` came out at 9.41e-05 s⁻¹

The measured self-cleavage kobs at 640 uM GlcN6P associated with `AUAAAUGCGCCAGAACUACAGAAAUGUAGUUGACGAGGAGGAGGUUUAUCGAAUUUUCAGCGGAUGCCUCCAAA` reads < 1e-05 s⁻¹

Lab note: `AUAAAAGCGCCAGAACUACAGAAAUGUAUUUGUCGAGGAGGAGUUUUAUCGUAUUUUCGGCGGAUGCCUCCAAA` gave self-cleavage kobs at 640 uM GlcN6P of < 1e-05 s⁻¹

The variant identified as `AUAAAAGCGCCAGAACUACAGAAAUGUAGUUGACGAGGAUGAGGUUUAUCGACUUUUCGGCGGAUGCCUCCAAA` registered its self-cleavage kobs at 640 uM GlcN6P at 0.000309 s⁻¹

// `AUAAAAGCGCCAGAACUACAGAAAUGUAGUUGACGAGGAGGAGGUUUAUCGAAUUUUAGGCGGAUGACUCCAAA` : self-cleavage kobs at 640 uM GlcN6P value = 3.37e-05 s⁻¹

Data point: `AUAAAGGCGCCAGAACUACAGAAAUGUAGUUGACGAGGAGGUGGUUUAUCGAAUUUUCGGCGGGUGCCUCCAAA` ; self-cleavage kobs at 640 uM GlcN6P = < 1e-05 s⁻¹

Item: `AUAAAAGCGCCACAACUACAGAAAUGUAGUUGACGAUGAGGACGUUUAUCGAAUUUUCGGCGGAUGCCUCCAAA` | self-cleavage kobs at 640 uM GlcN6P: < 1e-05 s⁻¹

Value of measured self-cleavage kobs at 640 uM GlcN6P for the entry `AUAAAAGCGCCAGAACUACAGAAAUGUAGUUGACGAGGAGGAGGUUUAUCGAAUCUUCGGCAGAUGCCUCCAAA` : < 1e-05 s⁻¹

get_value(item= `AUAAAACCGCCAGAACUACAGAAAUGUAGUUGACGAGGAGGAGGGUUAUCGAAUUUUCAGCGGAUGCCUCCAAA` , readout=self-cleavage kobs at 640 uM GlcN6P) returns < 1e-05 s⁻¹

# variant `AUAAAAGCGCCAGAUCUACAGAAAUGUAGUUGACGAGGAGGAGGCUUAUCGAAUUUUCGGCGGAUUGCUCCAAA` ; its self-cleavage kobs at 640 uM GlcN6P = 7.69e-05 s⁻¹

The variant identified as `AUAAAAGCGCCAGAGCUACAGAAAUGUAGUUGACGAGGAGGAGGUUUAUCGAAUUUUCGGCGGAUGCCUCAAAA` registered its self-cleavage kobs at 640 uM GlcN6P at 0.00108 s⁻¹

The recorded self-cleavage kobs at 640 uM GlcN6P for `AUAAAAGCGCCGGAACUACAGAAAUGUAGUUGACGAGGCGGCGGUUUAUCGAAUUUUCGGCGGAUGCCUCCAAA` is < 1e-05 s⁻¹

The recorded self-cleavage kobs at 640 uM GlcN6P for entry `AUAAAAGCGCCAGAACUACAGAAAUGUAGUUGACGACGGGGAGGAUUAACGAAUUUUCGGCGGAUGCCUCCAAA` equals < 1e-05 s⁻¹

// sample `AUAAAAGCGUCAGAACUACAUAAAUGUAGUUGACGAGGAGGAGGUUUAUCGAAUUUUCGGCAGAUGCCUCCAAA` , its self-cleavage kobs at 640 uM GlcN6P was < 1e-05 s⁻¹

Sample `AUAAAAGCGCCAGAACUACAGAAAUGUAGUUGACGAGGAGGUGGUUUAUCGAAUCUUCGGCGGAUGCCUCCAAA` ; self-cleavage kobs at 640 uM GlcN6P observed: 8.56e-05 s⁻¹

Recorded self-cleavage kobs at 640 uM GlcN6P (variant `AUAAAAGCGCCAGAACUACAGAAAUGUAGUUGACGAGGUGGGGGUUUAUCGAAUUUUCGGCGGAGGCCUCCAAA` ): 0.000684 s⁻¹

Measured self-cleavage kobs at 640 uM GlcN6P of `AUAAAAGCGCCAGAACUACAGAAAUGUAGUUGACGAGGAGGAGGUUUAUCCAAUUCUCGGCGGAUGCCUCCAAA` : < 1e-05 s⁻¹

Field self-cleavage kobs at 640 uM GlcN6P (entry `AUAAAAUCCCCAGAACUACAGAAAUGUAGUUGACGAGGAGGAGGUUUAUCGAAUUUUCCGCGGAUGCCGCCAAA` ) reads < 1e-05 s⁻¹

Entry `AUAAAAGCGCCAGAACUACAGAAAUGUAGUUAACGAGGAGCAGGUUUAUCGAAUUUUCGGCGGAUGCCUCCAAA` — recorded self-cleavage kobs at 640 uM GlcN6P = < 1e-05 s⁻¹

The measured self-cleavage kobs at 640 uM GlcN6P associated with `AUAAAAGCGCCGGCACUACAGAAAUGUAGUUGACGAGGAGGAGGUUUAUCGAAUUUUCGCCGGAUGCCUCCAAA` reads < 1e-05 s⁻¹

The variant listed as `AUAAAAGCGCCAGAACUACAGAAAUGUAGGUAACGAGGAGGAGGUUUAUCGAAUUUUCGGCGGAUGCUUCCAAA` shows self-cleavage kobs at 640 uM GlcN6P equal to 7.55e-05 s⁻¹

The variant identified as `AUAAAAGCGCCAGAACUACAGAAAUGUAGUUGACGAGGAGGAGGUUAAUCGAAUUUUCGGCGGAUGCCUACAAA` registered its self-cleavage kobs at 640 uM GlcN6P at 0.000122 s⁻¹

Record summary for `AUAAAAGCGCAAGAACUACAGAAAUGUAGUUGACGAGGAGAAGGUUUAUCGAAUUUUCGGCGGAUGCCUCCAAA` : reported self-cleavage kobs at 640 uM GlcN6P = < 1e-05 s⁻¹

The variant identified as `AUAAAAGCGCCAGAACUACAGAAAUGUAGUUGACGAGGAGGUGGUUUAUCGAAUUUUAGGCGGAUGCCUCCAAA` registered its self-cleavage kobs at 640 uM GlcN6P at < 1e-05 s⁻¹

Looking up `AUAAAAGCACCAGAACUACAGAAAUGUAGUUGACGAGGAGGGGCUUUAUCGAAUUGUCGGCGGAGGCCUCCAAA` , I see its self-cleavage kobs at 640 uM GlcN6P listed as < 1e-05 s⁻¹

Input `AUAAAAGCGUCAGAACUACAGAAAUGUAGUUGACGUGGAGAAGGUUUAUCGAAUUUUCGGCGGAUGCCUCCAAA` . Output self-cleavage kobs at 640 uM GlcN6P: < 1e-05 s⁻¹

For this variant ( `AUAAAAGCGCCAGAAGUACAGAAAUGUAGUUGACGAGGAGGAGGGUUAUCGAAUUUUCGGCGGAUGCCUCCAAA` ), measured self-cleavage kobs at 640 uM GlcN6P is 0.000199 s⁻¹

Please fill in: self-cleavage kobs at 640 uM GlcN6P reported for `AUAAAAGCGCCAGAACUACAGAAAUGUAGUUGACGAGGAGGAGGUUUAUCGAAUUUUCGGCUGAUGCUUCCAAA` = < 1e-05 s⁻¹

Input `AUAAAAGCGCCAGUACUACAGAAAUGUAGUUGACGAGGAGGAGGUUUAUCGAAUUUUCGGCUGAUGCCACCAAA` . Output self-cleavage kobs at 640 uM GlcN6P: < 1e-05 s⁻¹

Value of measured self-cleavage kobs at 640 uM GlcN6P for the entry `AUAAAAGCGCCAGAGCUACAGAAAUGUAGUUGACGAGGAGGAGGUUUAUCGAAUUUUCGGCGGAAGCCUCAAAA` : 0.000466 s⁻¹

Recorded self-cleavage kobs at 640 uM GlcN6P (variant `AUAAAACCGCCAGAACUACAGAAAUGUAGUUGACGAGGAGGAGGUUUAUCGAAUUUUCGGCGGAUGUCUCCAAA` ): < 1e-05 s⁻¹

Notebook: `AUAAAAGCGCCAGAACUACAGAAAUGUAGUUGACGAGGAGGAGGUUUAUCGAAUUUCCGUCGGAUGCCUCCAAA` , self-cleavage kobs at 640 uM GlcN6P read as < 1e-05 s⁻¹

GET /value?item= `AUAAAAGAUCCAGAACUACAGAAAUGUAGUUGACGAGGAGGAGGUUUAUCGAAUUUUCGGCGGAUGCCUCCAAA` &field=self-cleavage kobs at 640 uM GlcN6P returns < 1e-05 s⁻¹

Lab note: measured self-cleavage kobs at 640 uM GlcN6P of `AUAAAAGCGCCAGAACUACAGAAAUGUAGUUGACGAGGAGGAGGUUUAUCGAAUUUUGGCCGGAUGCCUCCAAA` was < 1e-05 s⁻¹

Quick note, self-cleavage kobs at 640 uM GlcN6P for `AUAAAAGCGCCAGAACUACAGAAAUGUAGUUGACGAGGCGGAGGUUUAUCGAAUUUUCGGCGGAAGCCUCCAAA` landed at 6.9e-05 s⁻¹

Measured self-cleavage kobs at 640 uM GlcN6P of `AUAAAAGCGCCAGAAUUACAGAAAUGUAGUUGACGAGGAGGGGGUUUUUCGAAUUUUCGGCGGAUUCCUCCAAA` : < 1e-05 s⁻¹

Reported self-cleavage kobs at 640 uM GlcN6P ( `AUAAAACCGCCAGAACUACAGAAAUGUAGUUGACGUGGAGGAGGUUUAUCGAAUUUUCGGCGGAUGGCUCCAAA` ) = < 1e-05 s⁻¹

The recorded self-cleavage kobs at 640 uM GlcN6P for entry `AUAAAAGCGACAGAAUUACAGAAAUGUAGUUGACGAGGAGACGGUUUAUCGAAUUUUCGGCGGAUGCCUCCAAA` equals < 1e-05 s⁻¹

get_value(item= `AUAAAAGCGCCAGAACUACAGAAAUGUAGUUGACGAGGAGGAGGUUUAUCGAAUUUUCGGCGGUUGCCUCCAAA` , readout=self-cleavage kobs at 640 uM GlcN6P) returns 4.12e-05 s⁻¹

Data point: `AUAAAUGCGCCAGACCUACAGAAAUGUAGUUGACGAGGAGGAGUUUUAUCGAAUUUUCGGCGGAUGCCUCCAAA` ; self-cleavage kobs at 640 uM GlcN6P = < 1e-05 s⁻¹

For this variant ( `AUAAAAGCGCCAAAACUACAGAAAUGUAGUUGACGAGGAGGAGGUUUAUCGAAGUUUCGGCGGAUGCCUCCAAA` ), measured self-cleavage kobs at 640 uM GlcN6P is 0.000123 s⁻¹

Entry `AUAAAAGCGCCAGAACUACAGAAAUGUAGUUGACGAGGAGGAGGGCUAUCGAAUUUUCGGAGGAUUCCUCCAAA` — recorded self-cleavage kobs at 640 uM GlcN6P = < 1e-05 s⁻¹
